Listed here: items and their measured Cmax.
Assay: Cmax in Swiss Webster mouse plasma at 100 umol/kg, po
Assay type: ADME, cell-free
Set-up: dose 100 umol/kg, route oral
The reply must contain the numeric value and, after it, the unit.

Would you kindly share the measured Cmax for `CCCCNc1nc(NCc2ccccc2)nc2ccccc12` ?
440 nM

How about this molecule: `Cc1ccc2c(NCc3ccco3)nc(NC(C)C)nc2c1`
250 nM

====

Test: Cytotoxicity against mouse J774A1 cells after 72 hrs by MTT assay
Assay type: cell-based
Conditions: J774.A1, 72 h
Listed here: items and their measured pEC50.
pEC50 here is simply -log10 of the concentration when that concentration is written in mol/L.

CC(C)Nc1nc(NCc2ccco2)c2ccccc2n1 :: 4.77
c1ccc(CNc2nc(Nc3ccccc3)nc3ccccc23)cc1 :: 5.17
CSCCNc1nc(NC(C)C)nc2ccccc12 :: 4.70
CNc1nc(NCc2ccccc2)c2ccccc2n1 :: 4.74
Cc1cccc2nc(NC(C)C)nc(NCc3ccco3)c12 :: 4.70
c1ccc(CNc2nc(Nc3ccccc3)c3ccccc3n2)cc1 :: 5.28
COc1cccc2c(NCc3ccco3)nc(NC(C)C)nc12 :: 4.52
COc1ccc2c(NCc3ccco3)nc(NC(C)C)nc2c1 :: 4.80

Kindly consider the entry below.
Would you kindly share the measured pEC50 for `CCCCNc1nc(NCc2ccccc2)c2ccccc2n1` ?
5.29

====

Assay: Aqueous solubility of the compound at pH 7.4
Type: physicochemical
Details: buffer
Listed here: items and their measured solubility.

Solved entries:
Cc1cccc2c(NCc3ccco3)nc(NC(C)C)nc12 :: ≤ 20 µM
CC(C)Nc1nc(NCc2ccco2)c2c(Cl)cccc2n1 :: ≤ 10 µM
OCCNc1nc(NCc2ccco2)c2ccccc2n1 :: ≤ 20 µM
COc1ccc2nc(NC(C)C)nc(NCc3ccco3)c2c1 :: ≥ 30 µM
CSCCNc1nc(NC(C)C)nc2ccccc12 :: ≤ 20 µM
CCCCNc1nc(NCCCC)c2ccccc2n1 :: ≤ 10 µM
Cc1ccc2nc(NC(C)C)nc(NCc3ccco3)c2c1 :: ≤ 20 µM
CC(C)Nc1nc(NCc2ccco2)c2cc(Cl)ccc2n1 :: ≤ 20 µM
CC(C)Nc1nc(NC2CCCCC2)c2ccccc2n1 :: ≤ 20 µM
CCOC(=O)CNc1nc(NC(C)C)nc2ccccc12 :: ≤ 20 µM

Would you kindly share the measured solubility for `COc1cccc2nc(NC(C)C)nc(NCc3ccco3)c12` ?
≤ 20 µM

How about this molecule: `CCCCNc1nc(NCc2ccccc2)nc2ccccc12`
≤ 10 µM

How about this molecule: `CC(C)Nc1nc(NCc2ccco2)c2cccc(Cl)c2n1`
≤ 5 µM

How about this molecule: `CC(C)Nc1nc(NCC(F)(F)F)c2ccccc2n1`
≥ 30 µM

How about this molecule: `COc1cccc2c(NCc3ccco3)nc(NC(C)C)nc12`
≤ 20 µM

How about this molecule: `COc1ccc2c(NCc3ccco3)nc(NC(C)C)nc2c1`
≤ 20 µM

How about this molecule: `c1ccc(CNc2nc(NCc3ccccc3)c3ccccc3n2)cc1`
≤ 5 µM

How about this molecule: `CCCCNc1nc(NCc2ccccc2)c2ccccc2n1`
≤ 10 µM

====

Conditions: pampa, pH 7.4
Description: Passive transcellular permeability of the compound at pH 7.4 by PAMPA
So basically: is permeability under 800 ×10⁻⁶ cm/s? Then yes. Not under? Then no.

CCCCNc1nc(NCCCC)c2ccccc2n1 :: no
OCCNc1nc(NCc2ccco2)c2ccccc2n1 :: no

Then this compound:
Bench note: check whether `FC(F)(F)CNc1nc(NCc2ccco2)c2ccccc2n1` shows permeability below 800 ×10⁻⁶ cm/s
no
